Values from patent US20250011363A1

- EXPERIMENTAL_TARGET: acetylcholine receptor
- ASSAY_COMMENT: SPR, AchR immobilised on CM5 chip, peptide at 10 uM
# key: entry, value: Binding affinity (RU)
Value and unit, in that order.

Some solved cases for reference:
BINDER: KKWQQK [6mer-1-453]
PROPERTY: Binding affinity (RU)
RECORDED_VALUE: 154 RU

BINDER: KRGRSR [6mer-1-408]
PROPERTY: Binding affinity (RU)
RECORDED_VALUE: 147 RU

BINDER: KHWFK [5mer-1193]
PROPERTY: Binding affinity (RU)
RECORDED_VALUE: 22 RU

BINDER: KYDIR [5mer-850]
PROPERTY: Binding affinity (RU)
RECORDED_VALUE: 13 RU

Lookup result for RYHIK [5mer-853] ; measured Binding affinity (RU): 13 RU

Lookup result for RKQILK [6mer-1-462] ; measured Binding affinity (RU): 126 RU

Lookup result for KRVRLR [6mer-1-445] ; measured Binding affinity (RU): 145 RU

Lookup result for KMSAK [5mer-883] ; measured Binding affinity (RU): 16 RU

Lookup result for RRGFQK [6mer-1-438] ; measured Binding affinity (RU): 142 RU

Lookup result for RMMER [5mer-865] ; measured Binding affinity (RU): 21 RU

Lookup result for KKHPK [5mer-869] ; measured Binding affinity (RU): 31 RU

Lookup result for KMCWK [5mer-851] ; measured Binding affinity (RU): 19 RU

Lookup result for KTSHR [5mer-1157] ; measured Binding affinity (RU): 21 RU

Lookup result for KHCNK [5mer-875] ; measured Binding affinity (RU): 33 RU

Lookup result for KRVVLR [6mer-1-428] ; measured Binding affinity (RU): 139 RU

Lookup result for REKWK [5mer-1182] ; measured Binding affinity (RU): 15 RU

Lookup result for RKGVQK [6mer-1-425] ; measured Binding affinity (RU): 131 RU
